- Protocol details: Solubility studies (crystalline and amorphous solubility, UV analysis)
- Format: physicochemical
- Condition: phosphate buffered saline (PBS), pH 6.8 PBS, 25 °C
- Method: The “crystalline solubility” was measured by the following method. An excess amount of crystal IMC powder was added to 10 mL of pH 6.8 PBS. These mixtures were kept at 25 °C and stirred at 300 rpm for 48 h. Ultracentrifugation was performed at 12,000 rpm and 25 °C for 30 min to separate excess solids using an Optima L-100XP ultracentrifuge (Beckman Coulter Inc., Brea, CA, USA). Then 5 mL of the supernatant was taken for ultraviolet (UV) spectroscopy analysis. All samples were prepared in triplicate. […]
Readout kind: solubility at 48 h (µg/mL)

INSERT INTO assay_data (smiles_input, readout_kind, numeric_readout) VALUES
  ('COc1ccc2c(c1)c(CC(=O)O)c(C)n2C(=O)c1ccc(Cl)cc1', 'solubility at 48 h', 23);
